Tested on: cerebral cortical neurons from GFP-expressing hESCs (H9, WA09)
ASSAY DETAILS: High-content imaging of senescence markers H3k9Me3, Lap2β, HP1γ, LaminB2 in cortical neurons
Assay type: cell-based, human
SETTINGS: cortical neurons treated 4 consecutive days; control 789±4
ENDPOINT NAME: Lap2β expression (Mean±SEM)
Keep the answer to the number alone.

These recorded examples may help you get a feel for the data.
COMPOUND: CC(C)C[C@H](NP(=O)(O)O[C@@H]1O[C@@H](C)[C@H](O)[C@@H](O)[C@H]1O)C(=O)N[C@@H](Cc1c[nH]c2ccccc12)C(=O)O
SYSTEM UNDER TEST: cerebral cortical neurons from GFP-expressing hESCs (H9, WA09)
Lap2β expression (Mean±SEM): 855

COMPOUND: CNC(=O)c1ccccc1Oc1nc(Nc2cc(OC)c(OC)c(OC)c2)ncc1Br
SYSTEM UNDER TEST: cerebral cortical neurons from GFP-expressing hESCs (H9, WA09)
Lap2β expression (Mean±SEM): 726

COMPOUND: Cc1cccc(C)c1OCC(=O)N[C@@H](Cc1ccccc1)[C@@H](O)C[C@H](Cc1ccccc1)NC(=O)[C@H](C(C)C)N1CCCNC1=O
SYSTEM UNDER TEST: cerebral cortical neurons from GFP-expressing hESCs (H9, WA09)
Lap2β expression (Mean±SEM): 709

COMPOUND: CCCC(=O)[O-].[Na+] [Sodium Butyrate]
SYSTEM UNDER TEST: cerebral cortical neurons from GFP-expressing hESCs (H9, WA09)
Lap2β expression (Mean±SEM): 734

In the following, a different compound is considered.
Qu. Lap2β expression (Mean±SEM) for C/C=C1\NC(=O)[C@H]2CSSCC/C=C/[C@H](CC(=O)N[C@H](C(C)C)C(=O)N2)OC(=O)[C@H](C(C)C)NC1=O ?
Ans. 742
